Origin of the recorded values: PubChem BioAssay (NCI)

system: SN12C renal; assay: NCI-60 one-dose screen, 48 h; conditions: 10 µM unless noted
The panel holds about 83,000 compounds, 20% with a hit somewhere; the sample as a whole holds those more often. Calls of active or inactive are those of the source. How the source made its calls: active means growth percent below 10; inactive means the rest.
Field 'call' accepts active, inactive

Solved cases below.
- COMPOUND: "C=CC(=O)Nc1cc(Nc2nccc(-c3cn(C)c4ccccc34)n2)c(OC)cc1N(C)CCN(C)C"
  ASSIGNED_CLASS: "active"
- COMPOUND: "CC1(COc2ccc3c(c2)ncn3-c2ccc3cccc(N4CCC(N)CC4)c3n2)COC1"
  ASSIGNED_CLASS: "inactive"
- COMPOUND: "Cc1cc(Oc2ccccc2)ccc1Nc1ncnc2ccc(-c3cnc(Cl)c(NS(C)(=O)=O)c3)cc12"
  ASSIGNED_CLASS: "inactive"
- COMPOUND: "COc1cc(OC)c(/C=C/S(=O)(=O)Cc2ccc(OC)c(NCC(=O)O)c2)c(OC)c1"
  ASSIGNED_CLASS: "inactive"
- COMPOUND: "COc1cnc2c(c1)C(=O)c1c-2n(CCCN2CCC(N)CC2)c(=O)c2cc([N+](=O)[O-])ccc12"
  ASSIGNED_CLASS: "inactive"

Identify the outcome logged in this assay for the compound shown: `O=C(Cc1ccccc1)Nc1nnc(NC2CCN(c3nnc(NC(=O)Cc4ccccc4)s3)CC2)s1`
inactive

Identify the outcome logged in this assay for the compound shown: `Cc1ccc(-n2nc(C(C)(C)C)cc2NC(=O)NCc2cc(F)ccc2Oc2ccc3c(cnn3CCO)c2)cc1`
inactive

Identify the outcome logged in this assay for the compound shown: `CCc1cc2c(c3ccc(C(=O)CBr)cc13)CCCC2`
inactive

Identify the outcome logged in this assay for the compound shown: `COc1cc2ncnc(Oc3cccc(NC(=O)Nc4cc(C(C)(C)C(F)(F)F)on4)c3)c2cc1OC`
inactive

Identify the outcome logged in this assay for the compound shown: CC(C)=CCc1cc2c(cc1O)C1=C(C(=O)C3=C(NCCS3(=O)=O)C1=O)C(C=C(C)C)O2 (centres undefined)
active

Identify the outcome logged in this assay for the compound shown: `O=C(Nc1nc2cccc(-c3ccc(CN4CCS(=O)(=O)CC4)cc3)n2n1)C1CC1`
inactive

Identify the outcome logged in this assay for the compound shown: `CCN(CC)Cc1cc(Nc2cc(C(F)(F)F)c(C#N)c3nc4ccccc4n23)ccc1O`
active

Identify the outcome logged in this assay for the compound shown: `O=C(CNc1nnc(-c2ccc(Cl)cc2)o1)Nc1ccc(-c2nc3ccccc3s2)cc1`
inactive

Identify the outcome logged in this assay for the compound shown: `N#CCNC(=O)c1ccc(-c2ccnc(Nc3ccc(N4CCOCC4)cc3)n2)cc1`
inactive

Identify the outcome logged in this assay for the compound shown: `C[C@@H](Oc1cc(C(=O)Nc2ccc(C(=O)N3CCN(C)CC3)cc2)nnc1N)c1c(Cl)ccc(F)c1Cl`
inactive

Identify the outcome logged in this assay for the compound shown: `CCCCn1c(C)nc2ccc(Nc3nc(N4CCN(C)CC4)nc4nc[nH]c34)cc21`
inactive

----------
Examples of molecules with documented growth follow.
Tested on: OVCAR-3 ovarian
Experiment: NCI-60 one-dose screen, 48 h (100 = growth as untreated, 0 = no growth, -100 = all killed)
Conditions: 10 µM unless noted
Experimental: Growth inhibition of the OVCAR-3 human tumor cell line is measured as a screen for anti-cancer activity. Cells are grown in 96 well plates and exposed to the test compound for 48 hours. Compounds are tested at a single concentration, which is 10^-5 M for most compounds. The reported endpoint is percent growth (GI% or GIPRCNT), where numbers from 0 - 100% represent growth inhibition, and numbers from -100% - 0 represent cell death. For example, a value of 40 represents 60% growth inhibition. […]
This is part of a sample that, as a whole, favours compounds with a hit. Of some 83,000 tested, about 20% had one in any assay.
Number in %, nothing else.

Study these solved cases before continuing.
- MOLECULE: "C/C(=C(/c1ccc(Cl)cc1)c1ccc(OCCN2CCCC2)cc1)c1ccccc1"
  REPORTED_MEASUREMENT: 91.8
- MOLECULE: "CN1CCN(CCOc2cc(OC3CCOCC3)c3c(Nc4c(Cl)ccc5c4OCO5)ncnc3c2)CC1"
  REPORTED_MEASUREMENT: 59.3
- MOLECULE: "C=CC[n+]1c(/C=C/C=C2\\N(C)c3ccccc3C2(C)C)sc2ccc(OC)cc21"
  REPORTED_MEASUREMENT: 13.3

Provide the reported growth (system: OVCAR-3 ovarian) for `CN(C)C[C@@H]1CCn2cc(c3ccccc32)C2=C(C(=O)NC2=O)c2cn(c3ccccc23)CCO1`
1.36

Provide the reported growth (system: OVCAR-3 ovarian) for `COc1ccc(/C(C)=C(\c2ccc(Cl)cc2)c2ccc(OCCN3CCCCCC3)cc2)cc1`
58.2

Provide the reported growth (system: OVCAR-3 ovarian) for `C/C(=C(/c1ccc(Cl)cc1)c1ccc(OCCN2CCCCCC2)cc1)c1ccccc1`
89.6

Provide the reported growth (system: OVCAR-3 ovarian) for `CCN1CCN(c2nc(C)cc(N(CCNc3ccnc4cc(Cl)ccc34)Cc3ccc4c(c3)OCO4)n2)CC1`
20.9

Provide the reported growth (system: OVCAR-3 ovarian) for `CCCCOc1nc2cc(Cl)ccc2cc1/C=C/c1cc(/C=C/c2cc3ccc(Cl)cc3nc2OCCCC)n(-c2ccccc2)n1`
103

Provide the reported growth (system: OVCAR-3 ovarian) for `Cc1ccc(C(=O)Nc2ccc(CN3CCN(C)CC3)c(C(F)(F)F)c2)cc1C#Cc1cnc2cccnn12`
-95.9

Provide the reported growth (system: OVCAR-3 ovarian) for `Cn1cc(-c2ncnc3ccc(-c4cnc(Cl)c(NS(C)(=O)=O)c4)cc23)c2ccccc21`
21.1

Provide the reported growth (system: OVCAR-3 ovarian) for `CN1CC[C@@H](c2c(O)cc(O)c3c(=O)cc(-c4ccccc4Cl)oc23)[C@@H]1CO`
14

Provide the reported growth (system: OVCAR-3 ovarian) for `CCN(CCO)CCCOc1ccc2c(Nc3cc(CC(=O)Nc4cccc(F)c4)[nH]n3)ncnc2c1`
44.4

Provide the reported growth (system: OVCAR-3 ovarian) for `Cc1sc2c(c1C)c(=O)nc1c(-c3nc(-c4ccccc4)cs3)n[nH]n12`
96.4

Provide the reported growth (system: OVCAR-3 ovarian) for CC1(O)CCC(Nc2cc(-c3ccc(C(F)(F)F)cc3)c(C#N)c3nc4ccccc4n23)CC1 (centres undefined)
81.4

Provide the reported growth (system: OVCAR-3 ovarian) for `O=C1CCC(=O)CC1`
117

Provide the reported growth (system: OVCAR-3 ovarian) for `CCc1nc2ccc(Cc3ccc(C(=O)NO)cc3)cc2c(=O)n1CCc1ccccc1`
-37.1

Provide the reported growth (system: OVCAR-3 ovarian) for `FC(F)(F)c1ccc(CNc2ccc(Cc3c[nH]c4ncc(Cl)cc34)cn2)cn1`
41.6

Provide the reported growth (system: OVCAR-3 ovarian) for `C=CC(=O)N1CCC(Oc2cc3c(Nc4ccc(Cl)c(Cl)c4F)ncnc3cc2OC)CC1`
19.4

Provide the reported growth (system: OVCAR-3 ovarian) for `C/C(=C(/c1ccc(Cl)cc1)c1ccc(OCCN2CCCCC2)cc1)c1ccccc1`
98.6

----------
test system: HOP-92 NSCLC; experiment: NCI-60 one-dose screen, 48 h (100 = growth as untreated, 0 = no growth, -100 = all killed); conditions: 10 µM unless noted
Compounds without any hit were thinned out: in the full panel of roughly 83,000, 20% have a hit.
ATTRIBUTE_MEASURED: growth (%)
Number in %, nothing else.

Study these solved cases before continuing.
- STRUCTURE: "C[C@@H](N)c1ccc(C(=O)Nc2ccnc3[nH]ccc23)cc1"
  growth / %: 55.6
- STRUCTURE: "Cc1ccc(N=C2CSc3nnc(-c4csc5c4CCCC5)n3N2)cc1"
  growth / %: 67.7

Indicate the recorded growth value for this compound: `COC(=O)c1ccc2c(C(=Nc3ccc(N(C)C(=O)CN4CCN(C)CC4)cc3)c3ccccc3)c(O)[nH]c2c1`
18.4

Indicate the recorded growth value for this compound: `COc1ccc2c(CCC(c3ccccc3)c3ccccc3)c3[n+](cc2c1OC)CCc1cc2c(cc1-3)OCO2`
-9.89

Indicate the recorded growth value for this compound: `CC1(COc2ccc3c(c2)ncn3-c2ccc3cccc(N4CCC(N)CC4)c3n2)COC1`
63.3

----------
system: UO-31 renal; test: NCI-60 one-dose screen, 48 h; conditions: 10 µM unless noted
This is part of a sample that, as a whole, favours compounds with a hit. Of some 83,000 tested, about 20% had one in any assay. The source made the active and inactive calls. The calls were made as follows: active = growth percent below 10; inactive = the rest.
Field 'call' accepts Yes for active, No for inactive

Solved cases below.
- COMPOUND: "CC1CCC(n2cnc3c(Cl)ncnc32)O1 (stereo not given)"
  ASSIGNED_CLASS: "No"
- COMPOUND: "COc1ccc(C2CC(=O)c3c(O)c(OC)c(OC)c(OC)c3O2)cc1O (stereo not given)"
  ASSIGNED_CLASS: "No"
- COMPOUND: "Cc1cc(N(CCNc2ccnc3cc(Cl)ccc23)Cc2ccc3c(c2)OCO3)nc(N2CCN(C)CC2)n1"
  ASSIGNED_CLASS: "Yes"
- COMPOUND: "CNC(=O)c1ccccc1Nc1nc(Nc2ccc3c(c2OC)CCC[C@H](N2CCN(CCO)CC2)C3)ncc1Cl"
  ASSIGNED_CLASS: "Yes"
- COMPOUND: "O=C(Nc1cnn2ccc(N3CCC[C@@H]3c3cc(F)ccc3F)nc12)N1CC[C@H](O)C1"
  ASSIGNED_CLASS: "No"
- COMPOUND: "CN[C@@H]1C[C@H]2O[C@@](C)([C@@H]1OC)n1c3ccccc3c3c4c(c5c6ccccc6n2c5c31)C(=O)N[C@H]4O"
  ASSIGNED_CLASS: "Yes"
- COMPOUND: "CN1CCN(CCCOc2cccc3nc(Nc4ccc(Cl)c(C(F)(F)F)c4)ccc23)CC1"
  ASSIGNED_CLASS: "No"
- COMPOUND: "Clc1ccc2c(NCCCNCc3ccc4c(c3)OCO4)ccnc2c1"
  ASSIGNED_CLASS: "No"
- COMPOUND: "COc1cccc(NC(=O)Nc2ccc(Nc3ncnc4sc5c(c34)CCN(C(=O)CCl)C5)cc2)c1"
  ASSIGNED_CLASS: "No"
- COMPOUND: "Cc1c(CN2CCN(C(=O)[C@H](C)O)CC2)sc2c(N3CCOCC3)nc(-c3cnc(N)nc3)nc12"
  ASSIGNED_CLASS: "Yes"

Identify the outcome logged in this assay for the compound shown: `Cc1cc2c3c(cccc3c1)C(=O)c1ccccc1-2`
No

Identify the outcome logged in this assay for the compound shown: `CCc1nc2cc(/C=C/C(=O)NO)c(F)cc2c(=O)n1CCc1ccccc1`
Yes
